System: IGROV-1
Assay: Growth inhibition of human IGROV1 cells after 48 hrs by sulforhodamine B assay
Assay type: functional
Conditions: IGROV-1, 48 h
Flag rule - GI50 less than 400 nM flags True; the remaining entries get False.

Take a look at these entries with their results.
>>> category_label("O=C1Cc2cnc(Nc3ccc(O)cc3)nc2-c2ccccc2N1")
"False"
>>> category_label("CCOc1ccc(Nc2ncc3c(n2)-c2ccc(OC)cc2NC(=O)C3)cc1")
"True"
>>> category_label("CCOc1ccc(Nc2ncc3c(n2)-c2ccccc2NC(=O)C3)cc1")
"True"

Consider now this further molecule.
Strictly below 400 nM: is that where GI50 of COc1ccc(Nc2ncc3c(n2)-c2ccccc2NC(=O)C3)cc1O sits?
True

* * *

Listed here: items and their measured IC50.
Target: Vascular endothelial growth factor receptor 2 (Homo sapiens)
Test: Inhibition of VEGFR2 in HUE cells assessed as inhibition of VEGF-induced autophosphorylation treated for 90 mins before VEGF challenge by ELISA
Assay type: cell-based
Report only the number, with the unit nM understood.

>>> test_result("CCOc1ccc(Nc2ncc3c(n2)-c2cnccc2NC(=O)C3)cc1")
18600
>>> test_result("O=C1Cc2cnc(Nc3cccc(O)c3)nc2-c2ccccc2N1")
1600
>>> test_result("O=C1Cc2cnc(Nc3ccc(O)c(Cl)c3)nc2-c2ccccc2N1")
9600
>>> test_result("COc1ccc(Nc2ncc3c(n2)-c2ccccc2NC(=O)C3)cc1O")
2400

What IC50 value was documented for this compound, CCOc1ccc(Nc2ncc3c(n2)-c2ccc(OC)cc2NC(=O)C3)cc1 ?
290

What IC50 value was documented for this compound, COc1ccc2c(c1)NC(=O)Cc1cnc(Nc3ccc(O)c(Cl)c3)nc1-2 ?
430

* * *

Listed here: items and their measured log10 of IC50.
Target: Vascular endothelial growth factor receptor 2 (Homo sapiens, UniProt P35968)
Sequence (P35968 whole entry): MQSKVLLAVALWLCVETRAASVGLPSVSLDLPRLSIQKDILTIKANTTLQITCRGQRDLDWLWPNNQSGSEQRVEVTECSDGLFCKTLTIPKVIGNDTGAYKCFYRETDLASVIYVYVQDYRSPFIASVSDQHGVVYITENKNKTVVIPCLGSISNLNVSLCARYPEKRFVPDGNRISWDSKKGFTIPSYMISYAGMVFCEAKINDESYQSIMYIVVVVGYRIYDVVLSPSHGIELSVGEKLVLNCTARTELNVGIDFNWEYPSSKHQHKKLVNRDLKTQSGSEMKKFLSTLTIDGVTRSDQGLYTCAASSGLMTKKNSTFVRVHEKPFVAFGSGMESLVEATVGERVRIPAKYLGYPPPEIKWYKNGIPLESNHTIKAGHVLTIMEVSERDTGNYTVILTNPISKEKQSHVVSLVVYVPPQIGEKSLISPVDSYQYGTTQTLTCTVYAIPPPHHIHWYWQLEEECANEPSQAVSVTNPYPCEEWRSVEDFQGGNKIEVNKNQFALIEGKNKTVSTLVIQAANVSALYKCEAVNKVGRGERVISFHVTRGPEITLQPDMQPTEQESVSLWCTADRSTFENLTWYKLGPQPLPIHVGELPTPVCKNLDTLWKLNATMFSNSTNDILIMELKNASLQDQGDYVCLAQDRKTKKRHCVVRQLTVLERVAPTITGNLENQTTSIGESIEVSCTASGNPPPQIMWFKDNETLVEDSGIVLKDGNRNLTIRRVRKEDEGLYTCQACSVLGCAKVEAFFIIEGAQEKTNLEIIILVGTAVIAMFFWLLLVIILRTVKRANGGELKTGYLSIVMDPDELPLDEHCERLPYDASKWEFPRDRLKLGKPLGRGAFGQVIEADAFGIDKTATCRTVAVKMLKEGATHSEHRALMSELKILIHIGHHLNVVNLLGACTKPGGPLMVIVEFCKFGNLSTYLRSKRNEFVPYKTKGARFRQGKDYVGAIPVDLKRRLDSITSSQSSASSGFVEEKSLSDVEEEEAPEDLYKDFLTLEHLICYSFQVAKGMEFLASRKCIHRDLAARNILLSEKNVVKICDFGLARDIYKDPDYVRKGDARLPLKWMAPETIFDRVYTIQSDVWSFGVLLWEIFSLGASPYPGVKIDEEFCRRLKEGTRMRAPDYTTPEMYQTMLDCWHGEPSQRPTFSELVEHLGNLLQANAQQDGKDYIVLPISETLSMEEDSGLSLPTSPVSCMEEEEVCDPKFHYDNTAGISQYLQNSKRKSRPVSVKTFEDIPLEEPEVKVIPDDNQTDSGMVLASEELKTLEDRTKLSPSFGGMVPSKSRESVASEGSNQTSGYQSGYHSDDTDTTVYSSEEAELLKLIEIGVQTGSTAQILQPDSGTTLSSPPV
Assay: Inhibition of VEGFR2 assessed as [33Pi] incorporation by microplate scintillation counting in presence of 1 uM ATP
Kindly note that the scale is log10 and the underlying IC50 is in nM.

What log10 of IC50 value was documented for this molecule, CCOc1ccc(Nc2ncc3c(n2)-c2ncccc2NC(=O)C3)cc1 ?
3.30

* * *

Listed here: items and their measured IC50.
Biological target: UniProt:P35968
Experiment: Inhibition of VEGFR2 assessed as [33Pi] incorporation by microplate scintillation counting in presence of 1 uM ATP
Report only the number, with the unit nM understood.

Request body: readout IC50, system UniProt:P35968, query O=C1Cc2cnc(Nc3ccc([N+](=O)[O-])cc3)nc2-c2ccccc2N1 . Return the value.
330

Request body: readout IC50, system UniProt:P35968, query O=C1Cc2cnc(Nc3cccc(O)c3)nc2-c2ncccc2N1 . Return the value.
2600

Request body: readout IC50, system UniProt:P35968, query COc1ccc2c(c1)NC(=O)Cc1cnc3cc(-c4ccccc4)nn3c1-2 . Return the value.
1800

Request body: readout IC50, system UniProt:P35968, query O=C1Cc2cnc(Nc3ccc(I)cc3)nc2-c2ccccc2N1 . Return the value.
400

Request body: readout IC50, system UniProt:P35968, query O=C1Cc2cnc(Nc3cccc(O)c3)nc2-c2cnccc2N1 . Return the value.
140

* * *

Listed here: items and their measured IC50.
Target: Serine/threonine-protein kinase PLK1 (Homo sapiens)
Sequence (P53350 whole entry): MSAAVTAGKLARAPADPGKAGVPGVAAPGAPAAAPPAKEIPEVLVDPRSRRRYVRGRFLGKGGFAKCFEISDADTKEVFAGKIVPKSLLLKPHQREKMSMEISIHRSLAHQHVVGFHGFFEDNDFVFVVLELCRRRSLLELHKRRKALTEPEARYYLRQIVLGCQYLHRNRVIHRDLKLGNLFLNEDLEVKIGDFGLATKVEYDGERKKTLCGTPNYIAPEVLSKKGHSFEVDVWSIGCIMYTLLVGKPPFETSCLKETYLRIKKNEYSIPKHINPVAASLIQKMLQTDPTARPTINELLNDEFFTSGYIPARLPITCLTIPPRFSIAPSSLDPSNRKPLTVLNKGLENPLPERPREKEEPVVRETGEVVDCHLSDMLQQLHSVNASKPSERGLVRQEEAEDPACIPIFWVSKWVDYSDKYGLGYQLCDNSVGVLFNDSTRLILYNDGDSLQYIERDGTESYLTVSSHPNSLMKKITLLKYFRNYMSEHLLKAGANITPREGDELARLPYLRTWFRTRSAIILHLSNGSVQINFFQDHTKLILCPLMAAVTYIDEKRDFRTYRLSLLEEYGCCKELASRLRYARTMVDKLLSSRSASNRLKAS
Test: Inhibition of PLK1 assessed as [33Pi] incorporation by microplate scintillation counting in presence of 1 uM ATP

>>> test_result("O=C1Cc2cnc(Nc3ccccc3Br)nc2-c2ccccc2N1")
"> 100 µM"
>>> test_result("COc1ccc2c(c1)NC(=O)Cc1cnc3ccnn3c1-2")
"> 100 µM"
>>> test_result("O=C1Cc2cnc3cc(-c4ccccc4)nn3c2-c2ncccc2N1")
"> 100 µM"
>>> test_result("O=C1Cc2cnc(Nc3ccc([N+](=O)[O-])cc3)nc2-c2ccccc2N1")
"> 100 µM"
>>> test_result("O=C1Cc2cc3c(=O)[nH]c(=O)[nH]c3nc2-c2ncccc2N1")
"> 100 µM"

What IC50 value was documented for this compound, O=C1Cc2cnc(Nc3ccc(O)cc3)nc2-c2cnccc2N1 ?
2.6 µM

What IC50 value was documented for this compound, COc1ccc(Nc2ncc3c(n2)-c2ncccc2NC(=O)C3)cc1 ?
> 100 µM

What IC50 value was documented for this compound, COc1ccc2c(c1)NC(=O)Cc1cc3c(=O)[nH]c(=O)[nH]c3nc1-2 ?
> 100 µM

What IC50 value was documented for this compound, O=C1Cc2cnc(Nc3ccc(O)c(Cl)c3)nc2-c2ncccc2N1 ?
> 100 µM

What IC50 value was documented for this compound, O=C1Cc2cnc(Nc3ccccc3O)nc2-c2ccccc2N1 ?
14 µM

What IC50 value was documented for this compound, COc1ccc2c(c1)NC(=O)Cc1cnc(Nc3cccc(O)c3)nc1-2 ?
0.84 µM

What IC50 value was documented for this compound, O=C1Cc2cc3c(=O)[nH]c(=O)[nH]c3nc2-c2ccccc2N1 ?
> 100 µM

What IC50 value was documented for this compound, COc1ccc(Nc2ncc3c(n2)-c2ccccc2NC(=O)C3)cc1O ?
5.7 µM

What IC50 value was documented for this compound, O=C1Cc2cnc(Nc3ccc(O)cc3)nc2-c2ncccc2N1 ?
55 µM

* * *

Entries below carry reported IC50 on Serine/threonine-protein kinase PLK1 (Homo sapiens).

Study these solved cases before continuing.
>>> test_result("O=C1Cc2cnc3cc(-c4ccccc4)nn3c2-c2ccccc2N1")
"> 100 µM"
>>> test_result("Cn1c(=O)c2cc3c(nc2n(C)c1=O)-c1ncccc1NC(=O)C3")
"> 100 µM"

Request body: readout IC50, system Serine/threonine-protein kinase PLK1 (Homo sapiens), query COc1ccc2c(c1)NC(=O)Cc1cnc3ncnn3c1-2 . Return the value.
> 100 µM

* * *

Listed here: items and their measured pIC50.
Target: Vascular endothelial growth factor receptor 2 (Homo sapiens)
Experiment: Inhibition of VEGFR2 assessed as [33Pi] incorporation by microplate scintillation counting in presence of 1 uM ATP
Lab note — pIC50 values are minus log10 of concentrations in M.

Study these solved cases before continuing.
>>> test_result("O=C1Cc2cnc(Nc3ccc(Br)cc3)nc2-c2ccccc2N1")
6.54
>>> test_result("O=C1Cc2cnc(Nc3ccc(O)cc3)nc2-c2cnccc2N1")
6.89
>>> test_result("O=C1Cc2cnc(Nc3ccccc3Br)nc2-c2ccccc2N1")
4.24
>>> test_result("O=C1Cc2cc3c(=O)[nH]c(=O)[nH]c3nc2-c2ncccc2N1")
4.18
>>> test_result("O=C1Cc2cnc3ccnn3c2-c2ccccc2N1")
4.92

Alright, here's another compound for you.
What pIC50 value was documented for this compound, O=C1Cc2cnc(Nc3ccc(O)c(Cl)c3)nc2-c2ccccc2N1 ?
7.46

* * *

Target: Vascular endothelial growth factor receptor 2 (Homo sapiens)
Assay: Inhibition of VEGFR2 assessed as [33Pi] incorporation by microplate scintillation counting in presence of 1 uM ATP
Listed here: items and their measured pIC50.
Lab note — pIC50 values are minus log10 of concentrations in M.

Study these solved cases before continuing.
>>> test_result("CCOc1ccc(Nc2ncc3c(n2)-c2ccccc2NC(=O)C3)cc1")
6.89
>>> test_result("O=C1Cc2cnc(Nc3ccccc3)nc2-c2ccccc2N1")
6.85
>>> test_result("O=C1Cc2cnc3cc(-c4ccccc4)nn3c2-c2ncccc2N1")
4.80
>>> test_result("O=C1Cc2cnc(Nc3ccccc3Cl)nc2-c2ccccc2N1")
5.21

What pIC50 value was documented for this compound, COc1ccc(Nc2ncc3c(n2)-c2ccccc2NC(=O)C3)cc1O ?
7.14

What pIC50 value was documented for this compound, COc1ccc2c(c1)NC(=O)Cc1cnc(Nc3ccc(O)c(Cl)c3)nc1-2 ?
7.96

What pIC50 value was documented for this compound, CCOc1ccc(Nc2ncc3c(n2)-c2ccc(OC)cc2NC(=O)C3)cc1 ?
7.28

What pIC50 value was documented for this compound, COc1ccc(Nc2ncc3c(n2)-c2ccc(OC)cc2NC(=O)C3)cc1 ?
7.30

* * *

Molecular target: UniProtKB P35968
Test: Inhibition of VEGFR2 assessed as [33Pi] incorporation by microplate scintillation counting in presence of 1 uM ATP
pIC50: −log10 of the molar value.
Param threshold (7) applies to pIC50; output met when value >= threshold, not met when value < threshold.

Take a look at these entries with their results.
>>> category_label("O=C1Cc2cc3c(=O)[nH]c(=O)[nH]c3nc2-c2ccccc2N1")
"not met"
>>> category_label("O=C1Cc2cnc(Nc3ccc(O)c(Cl)c3)nc2-c2ncccc2N1")
"not met"
>>> category_label("COc1ccc2c(c1)NC(=O)Cc1cnc(Nc3ccc(OC)c(O)c3)nc1-2")
"met"
>>> category_label("COc1ccc(Nc2ncc3c(n2)-c2ncccc2NC(=O)C3)cc1")
"not met"

Consider now this further compound.
# bool: pIC50 of O=C1Cc2cnc(Nc3cccc(O)c3)nc2-c2ccccc2N1 >= 7
met
